Origin of measurements: patent US20160152728A1

molecular target: T1, EGFRvIII expressed on cells (CHO^EGFRvIII, F98^EGFRvIII) (UniProt P00533 25-1210); assay: cell-based or functional assay
T1 construct: whole, on cells; the vIII deletion must be applied; also called deletion mutant EGFRvIII
recorded-endpoint: cytotoxicity improvement factor relative to parental TandAb (fold)

{"columns": ["binder", "observed-measurement"],
 "data": [
  ["EGFRvIII/CD3 TandAb with EGFRvIII binding domain ABC470, domain order (iv) VH^EGFRvIII-VL^CD3-VH^CD3-VL^EGFRvIII (bispecific antibody, part only; not given: CD3 domain and linkers, not shown: small tags and cut ends) chain, part: EVQLVQSGAEVKKPGESLKISCKGSGYSFNSYWIGWVRQMPGKGLEWMGIIYPGDSDTRYSPSFQGQVTISADKSISTAYLQWSSLKASDTAMYYCARLGSSWTNDAFDIWGQGTLVTVSSSYELTQPPSVSVSPGQTARITCSGDALDKQYAYWYQQKPGQAPVLVIYKDSERPSGIPERFSGSSSGTTVTLTISGVQAEDEADYYCQSVDSSETYVVFGGGTKLTVL", 56.9],
  ["EGFRvIII/CD3 TandAb with EGFRvIII binding domain ABC469, domain order (i) VL^CD3(v64)-VH^EGFRvIII-VL^EGFRvIII-VH^CD3(v64) (bispecific antibody, part only; not given: CD3 v64 domain and linkers, not shown: small tags and cut ends) chain, part: EVQLVQSGAEVKKPGESLKISCKGSGYSFNSYWIGWVRQMPGKGLEWMGIIYPGDSDTRYSPSFQGQVTISADKSISTAYLQWSSLKASDTAMYYCARLGSSWTNDAFDIWGQGTLVTVSSLTQPPSYESVSVSPGQTARITCSGDTLPKQYAYWYQQKPGQAPVLVIYKDSERPSGIPERFSGSSSGTTVTLTISGVQAEDEADYYCQSVDVSGTYVVFGGGTKLTVL", 2.5]
]}
